EXPERIMENTAL_DETAILS: In vivo clearance in mouse
Format: ADME, organism-based
MEASURED_PROPERTY: clearance (mL/min/kg)
All answers are understood in mL/min/kg, so give the number only.

Incoming: Item under review: C[C@H]1COCCN1c1nc(-c2ccc(Nc3nccc(=O)[nH]3)cc2)nc2c1CCN(c1ncccn1)C2 . Reported clearance?
Outgoing: 78

###

EXPERIMENTAL_DETAILS: Dissociation constant, pKa of the compound
Format: physicochemical
Let's look at some molecules and their measured pKa.
// return just the number, without any unit appended

RECORD_SMILES	pKa
CCNC(=O)Nc1ccc(-c2nc3c(c(N4CCOC[C@@H]4C)n2)CCN(C(C)C)C3)cc1	7.6

Then there is this molecule:
Incoming: Item under review: CCNC(=O)Nc1ccc(-c2nc3c(c(N4CCOC[C@@H]4C)n2)CCN(C2COC2)C3)cc1 . Reported pKa?
Outgoing: 5
